The reader will find reported Kallikrein-3 t = 1 h % cleavage values listed item by item below.
# Assay target: Kallikrein-3 (Homo sapiens)
# Sequence (P07288 25-261, species assumed): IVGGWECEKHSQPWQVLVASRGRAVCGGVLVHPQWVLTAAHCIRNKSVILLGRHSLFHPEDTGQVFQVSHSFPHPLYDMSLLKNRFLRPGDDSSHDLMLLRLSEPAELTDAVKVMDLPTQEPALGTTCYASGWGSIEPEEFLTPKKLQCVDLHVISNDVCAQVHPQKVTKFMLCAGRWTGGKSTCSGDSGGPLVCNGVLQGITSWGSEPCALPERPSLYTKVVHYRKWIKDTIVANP
# Protocol details: FRET peptide cleavage efficiency with Kallikrein-3
# Format: biochemical
# Particulars: t = 1 h; peptide 200 uM, Kallikrein-3 2 μg/ml, 37° C., pH 8
Square brackets hold non-standard residues; d marks the D form. Ends that are not written are not given here. Tyr(3-NO2) = N[C@@H](Cc1ccc(O)c([N+](=O)[O-])c1)C(=O)O; 2Abz = Nc1ccccc1C(=O)O

Substance	Kallikrein-3 t = 1 h % cleavage
HSSKLQYFGKL ([2Abz]HSSKLQYFGKL[Tyr(3-NO2)]-NH2) [LNK061]	0%
ISQYSSAT ([2Abz]ISQYSSAT[Tyr(3-NO2)]-NH2) [LNK070]	0%
KSKQHSL ([2Abz]KSKQHSL[Tyr(3-NO2)]-NH2) [LNK077]	9%
RGRRHSSKLQPLGYFGKL ([2Abz]RGRRHSSKLQPLGYFGKL[Tyr(3-NO2)]-NH2) [LNK062]	28%

Now for a further substance.
Sample GSGSGSGS ([2Abz]GSGSGSGS[Tyr(3-NO2)]-NH2) [LNK064] — what was its Kallikrein-3 t = 1 h % cleavage?
0%

* * *

# Assay target: matriptase (Homo sapiens, UniProt Q9Y5Y6)
# Construct: purchased R&D Systems 3946-SEB
# Sequence (Q9Y5Y6 615-855 limits assumed): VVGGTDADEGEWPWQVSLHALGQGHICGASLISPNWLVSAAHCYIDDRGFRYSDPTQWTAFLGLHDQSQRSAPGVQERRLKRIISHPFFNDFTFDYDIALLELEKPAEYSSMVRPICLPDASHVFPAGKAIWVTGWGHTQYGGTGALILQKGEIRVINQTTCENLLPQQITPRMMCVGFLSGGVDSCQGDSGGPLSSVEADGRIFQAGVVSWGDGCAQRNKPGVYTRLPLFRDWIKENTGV
# Protocol details: FRET peptide cleavage efficiency with matriptase
# Format: biochemical
# Particulars: t = 60 min; standard conditions (Table 8)
Square brackets hold non-standard residues; d marks the D form. Ends that are not written are not given here. Tyr(3-NO2) = N[C@@H](Cc1ccc(O)c([N+](=O)[O-])c1)C(=O)O; 2Abz = Nc1ccccc1C(=O)O
Readout kind: % cleavage Matriptase t = 60 min (%)
Kindly answer with a numeric value in %, unit omitted.

Below, each entry is followed by its recorded % cleavage Matriptase t = 60 min result.
Substance	Assay target	Readout units	Meas value
RGRRGP ([2Abz]RGRRGP[Tyr(3-NO2)]-NH2) [LNK048]	matriptase (Homo sapiens, UniProt Q9Y5Y6)	%	100
RGRKSQPLVD ([2Abz]RGRKSQPLVD[Tyr(3-NO2)]-NH2) [LNK041]	matriptase (Homo sapiens, UniProt Q9Y5Y6)	%	100
RGRKVANLVG ([2Abz]RGRKVANLVG[Tyr(3-NO2)]-NH2) [LNK031]	matriptase (Homo sapiens, UniProt Q9Y5Y6)	%	100
RGRKSPANLVG ([2Abz]RGRKSPANLVG[Tyr(3-NO2)]-NH2) [LNK034]	matriptase (Homo sapiens, UniProt Q9Y5Y6)	%	100

Param item = SGRVAPYMLQG ([2Abz]SGRVAPYMLQG[Tyr(3-NO2)]-NH2) [LNK042] ; retrieve measured % cleavage Matriptase t = 60 min.
80

And SGRVAPQPLVD (not fully specified (N-terminus, C-terminus)) [LNK046] ?
65

* * *

# Assay target: MMP-2 (Homo sapiens, UniProt P08253)
# Construct: purchased SIGMA PF023
# Sequence (P08253 110-660): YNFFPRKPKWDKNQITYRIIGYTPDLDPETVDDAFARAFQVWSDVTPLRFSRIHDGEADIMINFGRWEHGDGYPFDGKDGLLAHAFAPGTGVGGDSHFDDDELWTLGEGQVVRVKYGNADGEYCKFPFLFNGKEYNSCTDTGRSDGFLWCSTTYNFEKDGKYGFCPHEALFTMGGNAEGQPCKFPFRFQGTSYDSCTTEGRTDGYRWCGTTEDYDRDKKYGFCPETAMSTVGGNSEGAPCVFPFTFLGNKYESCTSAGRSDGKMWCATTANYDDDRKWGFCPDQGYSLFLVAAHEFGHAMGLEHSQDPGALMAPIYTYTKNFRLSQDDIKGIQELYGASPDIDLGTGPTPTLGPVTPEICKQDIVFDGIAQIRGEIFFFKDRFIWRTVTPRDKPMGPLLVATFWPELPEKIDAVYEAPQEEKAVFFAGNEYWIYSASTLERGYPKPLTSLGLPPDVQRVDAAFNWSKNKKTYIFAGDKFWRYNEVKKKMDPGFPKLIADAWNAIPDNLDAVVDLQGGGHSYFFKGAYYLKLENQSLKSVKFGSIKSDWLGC
# Protocol details: FRET peptide cleavage efficiency with MMP-2
# Type: biochemical
# Particulars: t = 120 min (Table 9)
Square brackets hold non-standard residues; d marks the D form. Ends that are not written are not given here. Tyr(3-NO2) = N[C@@H](Cc1ccc(O)c([N+](=O)[O-])c1)C(=O)O; 2Abz = Nc1ccccc1C(=O)O
Examples of substances with documented % cleavage MMP-2 t = 120 min follow.
Dear colleague, please return just the value in %, with no unit written.

// worked examples, % cleavage MMP-2 t = 120 min included
Substance	Readout units	% cleavage MMP-2 t = 120 min
RSSYRSL ([2Abz]RSSYRSL[Tyr(3-NO2)]-NH2) [LNK075]	%	86
RGRKSQPLVD ([2Abz]RGRKSQPLVD[Tyr(3-NO2)]-NH2) [LNK041]	%	0
SGRVLRKAGPANLVG ([2Abz]SGRVLRKAGPANLVG[Tyr(3-NO2)]-NH2) [LNK014]	%	100
RGRRPLGYFGKL ([2Abz]RGRRPLGYFGKL[Tyr(3-NO2)]-NH2) [LNK057]	%	100

What is its % cleavage MMP-2 t = 120 min for MMP-2 (Homo sapiens, UniProt P08253)? Entry: RGRRVANYFGKL ([2Abz]RGRRVANYFGKL[Tyr(3-NO2)]-NH2) [LNK055]
100

* * *

# Assay target: matriptase (Homo sapiens)
# Construct: purchased R&D Systems 3946-SEB
# Sequence (Q9Y5Y6 615-855 limits assumed): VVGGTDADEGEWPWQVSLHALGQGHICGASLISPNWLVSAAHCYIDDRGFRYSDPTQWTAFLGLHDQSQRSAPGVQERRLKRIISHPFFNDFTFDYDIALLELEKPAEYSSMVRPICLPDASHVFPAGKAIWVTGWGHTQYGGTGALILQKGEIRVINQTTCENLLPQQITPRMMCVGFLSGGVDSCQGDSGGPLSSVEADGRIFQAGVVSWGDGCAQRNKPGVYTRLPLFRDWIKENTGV
# Protocol details: FRET peptide cleavage efficiency with matriptase
# Type: biochemical
# Particulars: t = 15 min; 200 uM linker, 1 ug/ml protease, 37° C., buffer B pH 9.0
Square brackets hold non-standard residues; d marks the D form. Ends that are not written are not given here. Tyr(3-NO2) = N[C@@H](Cc1ccc(O)c([N+](=O)[O-])c1)C(=O)O; Nle = CCCC[C@H](N)C(=O)O; 2Abz = Nc1ccccc1C(=O)O
Just a reminder that ties go to FALSE: only % cleavage Matriptase t = 15 min strictly below 9% counts as TRUE.

Look over these answered cases.
Substance	Class assignment
HSSKLQL ([2Abz]HSSKLQL[Tyr(3-NO2)]-NH2) [LNK078]	TRUE
RQRRSAPLGLAG ([2Abz]RQRRSAPLGLAG[Tyr(3-NO2)]-NH2) [LNK009]	FALSE
SSRGPYMLQG ([2Abz]SSRGPYMLQG[Tyr(3-NO2)]-NH2) [LNK022]	TRUE
SPLGLAGS ([2Abz]SPLGLAGS[Tyr(3-NO2)]-NH2) [LNK030]	TRUE
SQLYSSPG ([2Abz]SQLYSSPG[Tyr(3-NO2)]-NH2) [LNK068]	TRUE
GSGSGSGS ([2Abz]GSGSGSGS[Tyr(3-NO2)]-NH2) [LNK064]	TRUE
SGRVLRKAGPANLVG ([2Abz]SGRVLRKAGPANLVG[Tyr(3-NO2)]-NH2) [LNK014]	FALSE
GSSYYSGA ([2Abz]GSSYYSGA[Tyr(3-NO2)]-NH2) [LNK079]	TRUE

Input SGRVLPANLVG ([2Abz]SGRVLPANLVG[Tyr(3-NO2)]-NH2) [LNK015] ; condition: % cleavage Matriptase t = 15 min strictly below 9%. Does it hold?
FALSE

What about this substance? SGRVLRKAGPQPLVD ([2Abz]SGRVLRKAGPQPLVD[Tyr(3-NO2)]-NH2) [LNK003]
FALSE

Moving on to the next substance: RGRRAANLVRPLGYFGKL ([2Abz]RGRRAANLVRPLGYFGKL[Tyr(3-NO2)]-NH2) [LNK060]
FALSE

# iterate: SGRVLTLRKAGPANLVG ([2Abz]SGRVLTLRKAGPANLVG[Tyr(3-NO2)]-NH2) [LNK012]
FALSE

Can you handle RQRRS-Nle-PLGLAG ([2Abz]RQRRS[Nle]PLGLAG[Tyr(3-NO2)]-NH2) [LNK025] next?
FALSE

Try this substance next: RGRRPLGYFGKL ([2Abz]RGRRPLGYFGKL[Tyr(3-NO2)]-NH2) [LNK057]
FALSE

Then what about the substance SGRVLPYAMTA ([2Abz]SGRVLPYAMTA[Tyr(3-NO2)]-NH2) [LNK024] ?
FALSE

Try SSRAVFRKNLGPLGLAG ([2Abz]SSRAVFRKNLGPLGLAG[Tyr(3-NO2)]-NH2) [LNK002] next.
FALSE

Then KWGKSAPLGLAG ([2Abz]KWGKSAPLGLAG[Tyr(3-NO2)]-NH2) [LNK026] ?
FALSE

The values you see were collected from patent US20240400614A1.
